Recorded values, source ChEMBL document CHEMBL5113486.

Recorded CC50 for the following molecules
experiment: Cytotoxicity against human THP-1 cells assessed as cell growth inhibition; assay type: toxicity, cell-based
test.readout: CC50

smiles_notation=O=C(Nc1ncc(-c2ccccc2)o1)c1ccc(F)cc1 reported_result="17 µM"
smiles_notation=COc1ccc(-c2cnc(NC(=O)c3ccc(F)cc3)n2Cc2ccccc2)cc1 reported_result="> 100 µM"
smiles_notation=COc1ccc(-c2ccc(NC(=O)c3ccc(F)cc3)nc2)cc1 reported_result="> 100 µM"
smiles_notation=Cn1c(-c2ccccc2F)cnc1NC(=O)c1ccc(F)cc1 reported_result="> 100 µM"
smiles_notation=Cn1c(-c2cccc(Cl)c2)cnc1NC(=O)c1ccc(F)cc1 reported_result="> 50 µM"
smiles_notation=COc1ccc(-c2cnc(NC(=O)c3cccc(C#N)c3)n2C)cc1 reported_result="> 100 µM"
smiles_notation=Cn1c(-c2ccc(Cl)cc2)cnc1NC(=O)c1ccc(F)cc1 reported_result="37 µM"
smiles_notation=COc1ccc(-c2cnc(NC(=O)c3cccc(Cl)c3)n2C)cc1 reported_result="> 28 µM"
smiles_notation=Cn1c(-c2ccccc2Br)cnc1NC(=O)c1ccc(F)cc1 reported_result="> 100 µM"
smiles_notation=COc1ccc(-c2cnc(NC(=O)c3ccc(F)cc3)[nH]2)cc1 reported_result="> 100 µM"
smiles_notation=Cn1c(-c2cccc(C#N)c2)cnc1NC(=O)c1ccc(F)cc1 reported_result="> 100 µM"
smiles_notation=COc1ccc(-c2cnc(NC(=O)c3ccc(Br)cc3)n2C)cc1 reported_result="> 100 µM"
smiles_notation=COc1ccc(-c2cnc(NC(=O)c3ccc([N+](=O)[O-])cc3)n2C)cc1 reported_result="> 100 µM"
smiles_notation=COc1ccc(-c2cnc(NC(=O)c3cccc(O)c3)n2C)cc1 reported_result="> 100 µM"
smiles_notation=COc1ccc(-c2cnc(NC(=O)c3cccc(C)c3)n2C)cc1 reported_result="> 100 µM"
smiles_notation=CCn1c(-c2ccc(OC)cc2)cnc1NC(=O)c1ccc(F)cc1 reported_result="> 100 µM"
smiles_notation=COc1ccc(-c2cnc(NC(C)=O)n2C)cc1 reported_result="> 100 µM"
smiles_notation=Cn1c(-c2cccc(C#N)c2)cnc1NC(=O)c1ncc[nH]1 reported_result="> 50 µM"
smiles_notation=C[C@@H]1[C@H](O)[C@@H](C)/C=C/C=C/C=C/C=C/C=C/C=C/C=C/[C@H](O[C@@H]2O[C@H](C)[C@@H](O)[C@H](N)[C@@H]2O)C[C@@H]2O[C@](O)(C[C@@H](O)C[C@@H](O)[C@H](O)CC[C@@H](O)C[C@@H](O)CC(=O)O[C@H]1C)C[C@H](O)[C@H]2C(=O)O reported_result="6 µM"
smiles_notation=CCC(=O)Nc1ncc(-c2ccc(OC)cc2)n1C reported_result="> 100 µM"
smiles_notation=COc1ccc(-c2noc(NC(=O)c3ccc(F)cc3)c2C)cc1 reported_result="> 100 µM"
